All values here come from patent US20210032312A1.

molecular target: T1, human CD8A-Fc (in house) (human, UniProt P01732 22-182, limits assumed); assay: SPR (ProteOn), captured hCD8A-Fc
T1 construct: captured by goat anti-human Fc on the ProteOn chip; also called hCD8A-Fc; recombinant human CD8 alpha; not shown: linker/tag and Fc of human IgG1
T1 sequence (P01732 22-182 limits assumed): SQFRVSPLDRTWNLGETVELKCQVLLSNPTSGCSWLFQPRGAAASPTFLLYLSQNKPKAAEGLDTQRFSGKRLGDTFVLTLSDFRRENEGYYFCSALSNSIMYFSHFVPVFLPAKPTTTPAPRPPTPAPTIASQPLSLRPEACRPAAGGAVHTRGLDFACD
Please note: fulfilled applies when koff is 0.0004 s⁻¹ or greater, and not fulfilled applies otherwise.

Could you tell me if the measured koff of P283DR9P1364_B11 (designed binder, FN3 domain) LPAPKNLVVSRVTEDSARLSWTAPDAAFDSFYISYPEWEQLGEAIVLTVPGSERSYDLTGLKPGTEYFVVIYGVKGGALSAPLSAIFTT reaches 0.0004 s⁻¹ or more?
fulfilled

Entry P283HR7P1368_G10 (designed binder, FN3 domain) LPAPKNLVVSRVTEDSARLSWTAPDAAFDSFGIAYVEWWHRGEAISLPVPGSERSYDLTGLKPGTEYWVTILGVKGGIISTPLGASFTT please
fulfilled

Entry P283BR9P1363_F2 (designed binder, FN3 domain) LPAPKNLVVSRVTEDSARLSWYRPDNRAGAFDSFLIQYQESEKVGEAIVLTVPGSERSYDLTGLKPGTEYTVSIYGVDVKYDIDSRPISSNPLSAIFTT please
not fulfilled

Entry P283DR9P1364_D11 (designed binder, FN3 domain) LPAPKNLVVSRVTEDSARLSWTAPDAAFDSFDIAYPEWPPKGEAIVLTVPGSERSYDLTGLKPGTEYFVVIYGVKGGIHSAPLSAIFTT please
fulfilled

Entry P283ER9P1365_H3 (designed binder, FN3 domain) LPAPKNLVVSRVTEDSARLSWTAPDAAFDSFYIPYRESEFRGEAIALPVPGSERSYDLTGLKPGTKYRVIIIGVKGGEFSQPLSAIFTT please
not fulfilled

Entry P283DR9P1364_D9 (designed binder, FN3 domain) LPAPKNLVVSRVTEDSARLSWTAPDAAFDSFGISYPEWPPLGEAIVLTVPGSERSYDLTGLKPGTEYWVIIFGVKGGERSWPLSAIFTT please
fulfilled

Entry P283DR9P1364_B4 (designed binder, FN3 domain) LPAPKNLVVSRVTEDSARLSWTAPDAAFDSFAISYPEWPPPGEAIVLTVPGSERSYDLTGLKPGTEYWVIILGVKGGDQSWPLSAIFTT please
not fulfilled

Entry P283FR9P1366_D8 (designed binder, FN3 domain) LPAPKNLVVSRVTEDSARLSWTAPDAAFDSFEIAYPEIPIAGEAIVLTVPGSERSYDLTGLKPGTEYFVIIYGVKGGDWSDPLSAIFTT please
fulfilled

Entry P283DR9P1364_F6 (designed binder, FN3 domain) LPAPKNLVVSRVTEDSARLSWTAPDAAFDSFTIAYPEREQDKWGEAIVLTVPGSERSYDLTGLKPGTEYWVIIQGVKGGRPSTPLSAILTT please
fulfilled
